Values were extracted from ChEMBL document CHEMBL4689842.

# Test system: Fibroblast
# protocol: Incucyte cell viability with human fibroblast; also: filed as whole numbers so only -1 and 0 and 1 occur
# Format: toxicity, cell-based
# experimental.context: 12 h, 10 µM, compound concentration 10 uM, replicate number 2, timepoint 12 hours
Kindly state Growth Rate for each of the entries shown.

compound	Growth Rate
O=C(Nc1cccnn1)N1CC(C/C=C/c2cncc(Oc3ccc(C(F)(F)F)cn3)n2)C1	1

Need Growth Rate for each of these compounds.
1. O=c1ccn([C@@H]2O[C@H](COP(=O)([O-])OP(=O)([O-])O)[C@@H](O)[C@H]2O)c(=O)[nH]1.[Na+].[Na+]
2. CCn1cc(-c2ccnc3[nH]c(-c4cccc(CN(C)C)c4)cc23)c(-c2ccc(NC(=O)N(C)C)cc2)n1 [GSK-1070916]
3. Cc1oncc1C(=O)Nc1ccc(C(F)(F)F)cc1 [LEFLUNOMIDE]
4. COC1CCN(c2cccc(-c3cc(NC(C)=O)nc(-n4nc(C)cc4C)n3)n2)CC1
5. COc1cc(OC)cc(-c2noc(N3CCN(C)C4(CCN(c5ccnc(C)c5)CC4)C3)n2)c1

Data returned:
1: 1; 2: 1; 3: 0; 4: 0; 5: 0

====

# System: HEK-293T
# protocol: Multiplex assay against HEK293T
# Type: toxicity, cell-based
# experimental.context: human, 24 h, 1 µM, compound concentration 1 uM, replicate 2
assay.readout: Population Mitotic Cells (%)
Numbers only, in %.

Need Population Mitotic Cells (%) for each of these compounds.
1. CNc1cc(Oc2cc(C(=O)Nc3cc(N4CCN(C)CC4)cc(C(F)(F)F)c3)ccc2C)ncn1
2. CCN1CCN(c2ccc(Nc3cc(N(C)C(=O)Nc4c(Cl)c(OC)cc(OC)c4Cl)ncn3)cc2)CC1 [INFIGRATINIB]
3. O=C(Nc1ccc(-n2nc(-c3cccnc3)cc2C(F)(F)F)cn1)c1ccc(-c2ccccc2)c(F)c1 [BI 2049]
4. CN1CCN(C(=O)C(C)(C)c2ccc(C(=O)Nc3cn4cc(-c5cc(C(C)(C)C)cc(C(C)(C)C)c5)ccc4n3)cc2)CC1 [T3-CLK-N]
5. Cc1cc(C)c(S(=O)(=O)N(Cc2ccc(-c3cccc(S(C)(=O)=O)c3)cc2)Cc2ccc(C(F)(F)F)o2)c(C)c1
6. COc1cc(N2CCN(C)CC2)ccc1Nc1ncc2c(n1)N(C)c1ccccc1C(=O)N2C
7. CCCS(=O)(=O)c1nc(NC2CC2)cc(-c2ccc3c(ccn3C3CC(C)(C)NC(C)(C)C3)c2)n1

Data returned:
[58, 93, 87, 95, 90, 90, 68]

Need Population Mitotic Cells (%) for each of these compounds.
1. Cc1ccc2nc(NCCN)c3ncc(C)n3c2c1.O=C(O)C(F)(F)F.O=C(O)C(F)(F)F
2. CCc1cccc(CC)c1NC(=O)c1nn(C)c2c1CCc1cnc(Nc3ccc(C(=O)NC4CCN(C)CC4)cc3OC(F)(F)F)nc1-2
3. CCn1c(=O)c(-c2ccc(-c3cncs3)cc2Cl)cc2cnc(Nc3ccc(N4CCN(C)CC4)cc3)nc21
4. O=C1NC(=O)C(c2cnc3ccccn23)=C1c1cn2c3c(cc(F)cc13)CN(C(=O)N1CCCCC1)CC2 [LY-2090314]
5. CN1CCC(=C2c3ccccc3CC(=O)c3sccc32)CC1.O=C(O)/C=C/C(=O)O [KETOTIFEN FUMARATE]
6. CN([C@@H](Cc1ccc(OS(=O)(=O)c2cccc3cnccc23)cc1)C(=O)N1CCN(c2ccccc2)CC1)S(=O)(=O)c1cccc2cnccc12

Data returned:
1. 94
2. 74
3. 87
4. 70
5. 86
6. 88
